Hey, just so you know, these numbers are from the supplement of paper PMC5579334.

- Test system: HSC1 (primary human Schwann cells)
- Experiment summary: drug sensitivity score (DSS, CellTiter-Glo viability, 72 h) (DSS (dimensionless)); higher = more sensitive; extreme values may be limits of the assay
Below, each entry is listed alongside its reported drug sensitivity score.
# output: bare number, no unit

These solved cases illustrate the format of a correct answer.
Compound	Assay system	Quantity measured	Quantitative result
Nc1nc(OCc2cc(Br)cs2)c2[nH]cnc2n1 [Lomeguatrib] (max concentration tested 10000 nM)	HSC1 (primary human Schwann cells)	drug sensitivity score	0
CO[C@H]1C[C@@H]2CC[C@@H](C)[C@@](O)(O2)C(=O)C(=O)N2CCCC[C@H]2C(=O)O[C@H]([C@H](C)C[C@@H]2CC[C@@H](OC(=O)C(C)(CO)CO)[C@H](OC)C2)CC(=O)[C@H](C)/C=C(\C)[C@@H](O)[C@@H](OC)C(=O)[C@H](C)C[C@H](C)/C=C/C=C/C=C/1C [Temsirolimus] (max concentration tested 100 nM)	HSC1 (primary human Schwann cells)	drug sensitivity score	17.5
CC/C(=C(\c1ccccc1)c1ccc(OCCN(C)C)cc1)c1ccccc1 [Tamoxifen] (max concentration tested 10000 nM)	HSC1 (primary human Schwann cells)	drug sensitivity score	0.133
CC[C@H](CO)Nc1nc(NCc2ccccc2)c2ncn(C(C)C)c2n1 [Seliciclib] (max concentration tested 10000 nM)	HSC1 (primary human Schwann cells)	drug sensitivity score	0.597
CCN(CC)CCCC(C)Nc1c2ccc(Cl)cc2nc2ccc(OC)cc12 (stereo unspecified) [Mepacrine aq] (max concentration tested 50000 nM)	HSC1 (primary human Schwann cells)	drug sensitivity score	18.6
O=C(Nc1ccncc1)C(=O)c1cn(Cc2ccc(Cl)cc2)c2ccccc12 [Indibulin] (max concentration tested 10000 nM)	HSC1 (primary human Schwann cells)	drug sensitivity score	11.2

QUERY: Item CC(=O)Nc1ccc(C(=O)Nc2ccccc2N)cc1 [Tacedinaline] (max concentration tested 1000 nM) has what recorded drug sensitivity score?
RESULT: 0

QUERY: Item CCN1CCN(c2ccc(Nc3cc(N(C)C(=O)Nc4c(Cl)c(OC)cc(OC)c4Cl)ncn3)cc2)CC1 [NVP-BGJ398] (max concentration tested 1000 nM) has what recorded drug sensitivity score?
RESULT: 0

QUERY: Item CC[C@@H]1C(=O)N(C)c2cnc(Nc3ccc(C(=O)N[C@H]4CC[C@H](N5CCN(CC6CC6)CC5)CC4)cc3OC)nc2N1C(C)C [Volasertib] (max concentration tested 1000 nM) has what recorded drug sensitivity score?
RESULT: 10.6

QUERY: Item O=P1(N(CCCl)CCCl)NCCCO1 (stereo unspecified) [Cyclophosphamide] (max concentration tested 40000 nM) has what recorded drug sensitivity score?
RESULT: 0

QUERY: Item CCS(=O)(=O)c1cccc(-c2cc(C(=O)NC3CCN(C)CC3)c(C)c3[nH]c4ncc(C)cc4c23)c1 [TAK-901] (max concentration tested 1000 nM) has what recorded drug sensitivity score?
RESULT: 7.19

---

- Test system: STS26T
- Experiment summary: drug sensitivity score (DSS, CellTox-Green cytotoxicity, 72 h) (DSS (dimensionless)); higher = more cytotoxic; extreme values may be limits of the assay
Label rule, in plain words: drug sensitivity score of 1 and up is MET, under 1 is NOT MET.

In [3]: df
Out[3]:
                                   molecule  group_label
0  O=C1c2c(O)ccc(O)c2C(=O)c2c(NCCNCCO)ccc(NCCNCCO)c21 [Mitoxantrone] (max concentration tested 1000 nM)          MET
1  O=C(Nc1ccc2[nH]nc(-c3ccncc3)c2c1)[C@@H]1CCN(CC(=O)N2CCN(c3ccc(-c4ncccn4)cc3)CC2)C1 (max concentration tested 10000 nM)          MET
2  O=C(Nc1ccncc1)C(=O)c1cn(Cc2ccc(Cl)cc2)c2ccccc12 [Indibulin] (max concentration tested 10000 nM)          MET
3  CC1(C)NC(=O)N(c2ccc([N+](=O)[O-])c(C(F)(F)F)c2)C1=O [Nilutamide] (max concentration tested 10000 nM)      NOT MET
4  FC(F)c1nc2ccccc2n1-c1nc(N2CCOCC2)nc(N2CCOCC2)n1 [ZSTK474] (max concentration tested 10000 nM)      NOT MET

Okay, next one:
QUERY: Textbook exercise: given the entry O=C(c1cc(Cc2n[nH]c(=O)c3ccccc23)ccc1F)N1CCN(C(=O)C2CC2)CC1 [Olaparib] (max concentration tested 10000 nM) , state whether its drug sensitivity score is greater than or equal to 1.
RESULT: MET

---

- Tested on: STS26T
- Experiment summary: drug sensitivity score (DSS, CellTox-Green cytotoxicity, 72 h) (DSS (dimensionless)); higher = more cytotoxic; extreme values may be limits of the assay
Below, each entry is listed alongside its reported drug sensitivity score.
# output: bare number, no unit

Compound	Assay system	Quantity measured	Quantitative result
O=C(O)CCCc1ccc(N(CCCl)CCCl)cc1 [Chlorambucil] (max concentration tested 10000 nM)	STS26T	drug sensitivity score	0
CN(C)CCN1C(=O)c2cccc3cc(N)cc(c23)C1=O [Amonafide] (max concentration tested 10000 nM)	STS26T	drug sensitivity score	0.0609

QUERY: Item COc1ccc(-c2cc3c(C)nc(N)nc3n([C@H]3CC[C@H](OCCO)CC3)c2=O)cn1 (max concentration tested 10000 nM) has what recorded drug sensitivity score?
RESULT: 4.38

QUERY: Item Cn1cncc1[C@@](N)(c1ccc(Cl)cc1)c1ccc2c(c1)c(-c1cccc(Cl)c1)cc(=O)n2C [Tipifarnib] (max concentration tested 10000 nM) has what recorded drug sensitivity score?
RESULT: 9.1

QUERY: Item COc1ccc(C2=N[C@@H](c3ccc(Cl)cc3)[C@@H](c3ccc(Cl)cc3)N2C(=O)N2CCNC(=O)C2)c(OC(C)C)c1 [Nutlin-3] (max concentration tested 10000 nM) has what recorded drug sensitivity score?
RESULT: 0

QUERY: Item O=S(=O)(c1cccc2cnccc12)N1CCCNCC1 [Fasudil] (max concentration tested 50000 nM) has what recorded drug sensitivity score?
RESULT: 0.899

---

- Test system: STS26T
- Experiment summary: relative IC50 (inflection point of fitted dose-response curve, CellTox-Green cytotoxicity, 72 h; top asymptote may be below 50%); higher = less potent
Quantity measured: relative IC50

QUERY: Item Cc1cc2c(F)c(Oc3ncnn4cc(OC[C@@H](C)O)c(C)c34)ccc2[nH]1 has what recorded relative IC50?
RESULT: > 1 µM

QUERY: Item CC[C@@H]1C(=O)OC[C@@H]1Cc1cncn1C has what recorded relative IC50?
RESULT: > 40 µM

---

- System: ST8814
- Experiment summary: relative IC50 (inflection point of fitted dose-response curve, CellTiter-Glo viability, 72 h; top asymptote may be below 50% inhibition); higher = less potent
Classes by relative IC50: low class (below 100 nM), middle class (100 nM to below 2000 nM), high class (2000 nM or more)

Molecule	Assay system	Group label
O=c1[nH]c(=O)n([C@H]2C[C@H](O)[C@@H](CO)O2)cc1F [Floxuridine]	ST8814	middle class
N[C@@H](CSC(c1ccccc1)(c1ccccc1)c1ccccc1)C(=O)O [S-trityl-L-cysteine]	ST8814	high class

QUERY: Hi there! Could you help me figure out the category for Nc1cc(C(F)(F)F)c(-c2cc(N3CCOCC3)nc(N3CCOCC3)n2)cn1 [Buparlisib] please?
RESULT: middle class

QUERY: Hi there! Could you help me figure out the category for O=C(CCCCCCC(=O)Nc1ccccc1)NO [Vorinostat] please?
RESULT: middle class

QUERY: Hi there! Could you help me figure out the category for C#Cc1cccc(Nc2ncnc3cc(OCCOC)c(OCCOC)cc23)c1 [Erlotinib] please?
RESULT: high class

QUERY: Hi there! Could you help me figure out the category for Cc1ccc(-n2nc(C(C)(C)C)cc2NC(=O)Nc2ccc(OCCN3CCOCC3)c3ccccc23)cc1 [Doramapimod] please?
RESULT: high class

QUERY: Hi there! Could you help me figure out the category for CC[C@@H]1C(=O)N(C)c2cnc(Nc3ccc(C(=O)NC4CCN(C)CC4)cc3OC)nc2N1C1CCCC1 [BI 2536] please?
RESULT: low class

QUERY: Hi there! Could you help me figure out the category for N[C@@H](Cc1ccc(N(CCCl)CCCl)cc1)C(=O)O [Melphalan aq] please?
RESULT: high class

QUERY: Hi there! Could you help me figure out the category for CN1CCc2c(c3ccccc3n2Cc2ccc(C(=O)NO)cc2)C1 [Tubastatin A] please?
RESULT: high class

QUERY: Hi there! Could you help me figure out the category for CC(C)c1c(C(=O)Nc2ccccc2)c(-c2ccccc2)c(-c2ccc(F)cc2)n1CC[C@@H](O)C[C@@H](O)CC(=O)O [Atorvastatin] please?
RESULT: high class

QUERY: Hi there! Could you help me figure out the category for Sc1ncnc2nc[nH]c12 [Mercaptopurine] please?
RESULT: middle class

QUERY: Hi there! Could you help me figure out the category for O=C(O)CCCc1ccc(N(CCCl)CCCl)cc1 [Chlorambucil] please?
RESULT: high class

QUERY: Hi there! Could you help me figure out the category for C=CCNC1=C2C[C@@H](C)C[C@H](OC)[C@H](O)[C@@H](C)/C=C(\C)[C@H](OC(N)=O)[C@@H](OC)/C=C\C=C(/C)C(=O)NC(=CC1=O)C2=O [Tanespimycin] please?
RESULT: middle class

QUERY: Hi there! Could you help me figure out the category for CC[C@@]1(O)C(=O)OCc2c1cc1n(c2=O)Cc2cc3ccccc3nc2-1 [Camptotechin] please?
RESULT: low class

QUERY: Hi there! Could you help me figure out the category for C/C(=C\c1csc(C)n1)[C@@H]1C[C@@H]2O[C@]2(C)CCC[C@H](C)[C@H](O)[C@@H](C)C(=O)C(C)(C)[C@@H](O)CC(=O)O1 [Patupilone] please?
RESULT: low class

QUERY: Hi there! Could you help me figure out the category for CS(=O)(=O)OCCCCOS(C)(=O)=O [Busulfan] please?
RESULT: high class

QUERY: Hi there! Could you help me figure out the category for Cc1sc2c(c1C)C(c1ccc(Cl)cc1)=N[C@@H](CC(=O)OC(C)(C)C)c1nnc(C)n1-2 [(+)JQ1] please?
RESULT: middle class
